system: Mus musculus; test: In vivo inhibition of epidermal DNA synthesis in mouse after oral administration; assay type: functional
Just a reminder that ties go to N: only Inhibition strictly below 30% counts as Y.

Lab log: compare recorded Inhibition with 30%; is it strictly lower for Cc1cc(=O)oc2c1ccc1occ(C)c12 ?
Y

Check if Inhibition falls below 30% for O=c1ccc2ccc3occc3c2o1 .
Y

Inhibition under 30%? Item: Cc1coc2ccc3ccc(=O)oc3c12
N

I'd appreciate it if you could check whether COc1c2occc2cc2ccc(=O)oc12 has Inhibition smaller than 30%.
N

Please state whether Inhibition is below 30% for Cc1cc2occ(C)c2c2oc(=O)ccc12
N
